Molecular target: BpGH94MLG (Blautia producta, UniProt A0A7G5MNS2)
Sequence (A0A7G5MNS2 1-804): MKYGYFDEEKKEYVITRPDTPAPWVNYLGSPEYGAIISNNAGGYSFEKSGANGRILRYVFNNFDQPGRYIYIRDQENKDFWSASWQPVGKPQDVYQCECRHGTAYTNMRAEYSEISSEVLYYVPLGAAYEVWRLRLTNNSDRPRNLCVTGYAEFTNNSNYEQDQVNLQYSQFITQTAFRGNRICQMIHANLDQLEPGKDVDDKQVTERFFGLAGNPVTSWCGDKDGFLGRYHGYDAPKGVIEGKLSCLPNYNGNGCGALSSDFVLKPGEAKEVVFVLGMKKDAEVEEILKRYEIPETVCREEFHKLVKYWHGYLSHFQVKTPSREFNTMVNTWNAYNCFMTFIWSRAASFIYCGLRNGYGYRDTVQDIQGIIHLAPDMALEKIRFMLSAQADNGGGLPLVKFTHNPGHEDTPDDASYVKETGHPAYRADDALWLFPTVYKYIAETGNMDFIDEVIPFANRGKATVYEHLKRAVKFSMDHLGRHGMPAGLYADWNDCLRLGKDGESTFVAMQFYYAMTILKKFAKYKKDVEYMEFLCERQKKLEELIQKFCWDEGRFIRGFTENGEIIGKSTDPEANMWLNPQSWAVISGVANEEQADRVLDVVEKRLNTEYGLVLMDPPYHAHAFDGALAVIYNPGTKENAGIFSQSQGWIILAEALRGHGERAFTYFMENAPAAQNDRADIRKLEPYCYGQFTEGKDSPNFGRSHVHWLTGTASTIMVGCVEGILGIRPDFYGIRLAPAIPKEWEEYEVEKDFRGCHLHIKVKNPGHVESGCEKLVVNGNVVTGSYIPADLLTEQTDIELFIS
Assay: Phosphorolysis activity of BpGH94MLG on substrates (TLC)
Assay type: biochemical, Blautia producta ATCC 27340
Settings: inorganic phosphate, 37 °C
result type: phosphorolysis activity of BpGH94MLG (in words)

# compound, observed value
rows = [
    ("OC[C@H]1O[C@@H](O[C@H]2[C@H](O)[C@@H](O)[C@H](O[C@H]3[C@H](O)[C@@H](CO)OC(O)[C@@H]3O)O[C@@H]2CO)[C@H](O)[C@@H](O)[C@@H]1O (stereo partly drawn) [G4G3G, Glc-β-1-4-Glc-β-1-3-Glc]", "cleaved"),
    ("OC[C@H]1O[C@@H](O[C@H]2[C@H](O)[C@@H](O)[C@H](O[C@H]3[C@H](O)[C@@H](O)C(O)O[C@@H]3CO)O[C@@H]2CO)[C@H](O)[C@@H](O)[C@@H]1O (stereo partly drawn) [Cellotriose]", "cleaved"),
]

====

target: BpSBPMLG (Blautia producta); experiment: Isothermal titration calorimetry of oligosaccharide binding to BpSBPMLG; set-up: species or system Blautia producta ATCC 27340; details: ITC at 25 °C, 10 mM sodium phosphate pH 7.0
Sequence (A0ABX6JB09 entry or part of it): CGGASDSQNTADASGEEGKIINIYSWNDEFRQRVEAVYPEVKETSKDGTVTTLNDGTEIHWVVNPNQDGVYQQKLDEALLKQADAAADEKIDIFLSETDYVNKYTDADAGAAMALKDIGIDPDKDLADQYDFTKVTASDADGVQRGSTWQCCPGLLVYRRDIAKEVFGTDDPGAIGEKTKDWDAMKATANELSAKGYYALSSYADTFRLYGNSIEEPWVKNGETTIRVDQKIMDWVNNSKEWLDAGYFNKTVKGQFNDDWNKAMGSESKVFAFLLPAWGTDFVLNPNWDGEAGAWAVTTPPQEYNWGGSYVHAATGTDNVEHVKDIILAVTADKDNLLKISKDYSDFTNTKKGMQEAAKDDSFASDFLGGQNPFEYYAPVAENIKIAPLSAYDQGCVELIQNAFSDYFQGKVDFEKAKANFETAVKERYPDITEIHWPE
compounds and their reported ΔH
Numbers only here, please. The scale is kcal/mol.

Inquiry: Can you look up the measured ΔH of OC[C@H]1O[C@@H](O[C@@H]2[C@@H](O)[C@H](O[C@H]3[C@H](O)[C@@H](CO)OC(O)[C@@H]3O)O[C@H](CO)[C@H]2O)[C@H](O)[C@@H](O)[C@@H]1O (some centres unmarked) for me?
Reply text: -3.66

Inquiry: Proceed to O=C[C@H](O)[C@@H](O)[C@H](O[C@@H]1O[C@H](CO)[C@@H](O)[C@H](O)[C@H]1O)[C@H](O)CO
Reply text: -7.0

Inquiry: Proceed to OC[C@H]1O[C@@H](O[C@H]2[C@H](O)[C@@H](CO)OC(O)[C@@H]2O)[C@H](O)[C@@H](O)[C@@H]1O (some centres unmarked)
Reply text: -3.14

Inquiry: Proceed to OC[C@H]1O[C@@H](O[C@H]2[C@H](O)[C@@H](O)[C@H](O[C@H]3[C@H](O)[C@@H](O)[C@H](O[C@H]4[C@H](O)[C@@H](O)C(O)O[C@@H]4CO)O[C@@H]3CO)O[C@@H]2CO)[C@H](O)[C@@H](O)[C@@H]1O (some centres unmarked)
Reply text: -16.6

Inquiry: Proceed to OC[C@H]1O[C@@H](O[C@H]2[C@H](O)[C@@H](O)[C@H](O[C@H]3[C@H](O)[C@@H](O)C(O)O[C@@H]3CO)O[C@@H]2CO)[C@H](O)[C@@H](O)[C@@H]1O (some centres unmarked)
Reply text: -7.1

====

target: UniProtKB A0ABX6JB09; experiment: Isothermal titration calorimetry of oligosaccharide binding to BpSBPMLG; parameters: species or system Blautia producta ATCC 27340; conditions: ITC at 25 °C, 10 mM sodium phosphate pH 7.0
Values of -TΔS^0 strictly less than 20 kJ/mol map to Yes, and values of at least 20 kJ/mol map to No.

# example entries with known answers
# compound, qualitative label
data = [
    ("O=C[C@H](O)[C@@H](O)[C@H](O[C@@H]1O[C@H](CO)[C@@H](O)[C@H](O)[C@H]1O)[C@H](O)CO", "Yes"),
    ("OC[C@H]1O[C@@H](O[C@H]2[C@H](O)[C@@H](O)[C@H](O[C@H]3[C@H](O)[C@@H](O)[C@H](O[C@H]4[C@H](O)[C@@H](CO)OC(O)[C@@H]4O)O[C@@H]3CO)O[C@@H]2CO)[C@H](O)[C@@H](O)[C@@H]1O (stereo partly shown)", "No"),
    ("OC[C@H]1O[C@@H](O[C@@H]2[C@@H](O)[C@H](O[C@H]3[C@H](O)[C@@H](CO)OC(O)[C@@H]3O)O[C@H](CO)[C@H]2O)[C@H](O)[C@@H](O)[C@@H]1O (stereo partly shown)", "Yes"),
    ("OC[C@H]1O[C@@H](O[C@H]2[C@H](O)[C@@H](O)[C@H](O[C@H]3[C@H](O)[C@@H](O)[C@H](O[C@H]4[C@H](O)[C@@H](O)C(O)O[C@@H]4CO)O[C@@H]3CO)O[C@@H]2CO)[C@H](O)[C@@H](O)[C@@H]1O (stereo partly shown)", "No"),
    ("OC[C@H]1O[C@@H](O[C@H]2[C@H](O)[C@@H](O)[C@H](O[C@H]3[C@H](O)[C@@H](CO)OC(O)[C@@H]3O)O[C@@H]2CO)[C@H](O)[C@@H](O)[C@@H]1O (stereo partly shown)", "Yes"),
]

Inquiry: Lab log: compare recorded -TΔS^0 with 20 kJ/mol; is it strictly lower for OC[C@H]1O[C@@H](O[C@@H]2[C@@H](O)[C@H](O[C@@H]3[C@@H](O)[C@H](O[C@H]4[C@H](O)[C@@H](CO)OC(O)[C@@H]4O)O[C@H](CO)[C@H]3O)O[C@H](CO)[C@H]2O)[C@H](O)[C@@H](O)[C@@H]1O (stereo partly shown) ?
Reply text: No

Inquiry: Proceed to OC[C@H]1O[C@@H](O[C@H]2[C@H](O)[C@@H](O)[C@H](O[C@H]3[C@H](O)[C@@H](O)C(O)O[C@@H]3CO)O[C@@H]2CO)[C@H](O)[C@@H](O)[C@@H]1O (stereo partly shown)
Reply text: Yes

====

compounds and their reported ΔH
biological target: BpSBPMLG (Blautia producta); assay: Isothermal titration calorimetry of oligosaccharide binding to BpSBPMLG; parameters: species or system Blautia producta ATCC 27340; details: ITC at 25 °C, 10 mM sodium phosphate pH 7.0
Numbers only here, please. The scale is kcal/mol.

Examples with answers:
# compound, target of assay, ΔH [kcal/mol]
records = [
    ("OC[C@H]1O[C@@H](O[C@H]2[C@H](O)[C@@H](O)[C@H](O[C@H]3[C@H](O)[C@@H](O)[C@H](O[C@H]4[C@H](O)[C@@H](CO)OC(O)[C@@H]4O)O[C@@H]3CO)O[C@@H]2CO)[C@H](O)[C@@H](O)[C@@H]1O (stereo partly drawn)", "BpSBPMLG (Blautia producta)", -12.9),
    ("OC[C@H]1O[C@@H](O[C@@H]2[C@@H](O)[C@H](O[C@@H]3[C@@H](O)[C@H](O[C@H]4[C@H](O)[C@@H](CO)OC(O)[C@@H]4O)O[C@H](CO)[C@H]3O)O[C@H](CO)[C@H]2O)[C@H](O)[C@@H](O)[C@@H]1O (stereo partly drawn)", "BpSBPMLG (Blautia producta)", -0.15),
]

Inquiry: Can you look up the measured ΔH of OC[C@H]1O[C@@H](O[C@H]2[C@H](O)[C@@H](O)[C@H](O[C@H]3[C@H](O)[C@@H](CO)OC(O)[C@@H]3O)O[C@@H]2CO)[C@H](O)[C@@H](O)[C@@H]1O (stereo partly drawn) for me?
Reply text: -12.6

====

biological target: BpSBPMLG (Blautia producta); assay: Isothermal titration calorimetry of oligosaccharide binding to BpSBPMLG; set-up: species or system Blautia producta ATCC 27340; conditions: ITC

# molecule, binding to BpSBPMLG (in words)
records = [
    ("OC[C@H]1O[C@@H](O[C@H]2[C@H](O)[C@@H](O)[C@H](O)O[C@@H]2CO)[C@H](O)[C@@H](O)[C@H]1O", "no detectable affinity"),
    ("O=C[C@H](O)[C@@H](O)[C@H](O[C@@H]1O[C@H](CO)[C@@H](O)[C@H](O)[C@H]1O)[C@H](O)CO", "some affinity"),
    ("OC[C@H]1O[C@H](O[C@H]2[C@H](O)[C@@H](O)[C@H](O)O[C@@H]2CO)[C@H](O)[C@@H](O)[C@@H]1O", "no detectable affinity"),
    ("OC[C@H]1O[C@@H](O[C@H]2[C@H](O)[C@@H](CO)OC(O)[C@@H]2O)[C@H](O)[C@@H](O)[C@@H]1O (stereo partly shown)", "some affinity"),
]
